This listing pairs molecules with measured Transactivation % max (α).
# Tested on: human RAR-α
# Procedure summary: RAR-α transactivation assay (SeAP reporter, COS cells)
# Assay type: cell-based
# Reported conditions: relative to all-trans-retinoic acid at same concentration (1,000 nM or 10,000 nM)
The figure you give is taken to be in %; do not add the unit.

- Molecule: "CCCCCOc1cc2c(cc1/C=C/C=C/C(C)=C/C(=O)O)C(C)(C)CCC2(C)C"
  Study target: "human RAR-α"
  Unit info: "%"
  Transactivation % max (α): 45
- Molecule: "CCCCCCc1cc2c(cc1/C=C/C=C/C(C)=C/C(=O)O)C(C)(C)CCC2(C)C"
  Study target: "human RAR-α"
  Unit info: "%"
  Transactivation % max (α): 63
- Molecule: "C/C(=C\\c1ccc(S(C)(=O)=O)cc1)c1ccc2c(c1)C(C)(C)CCC2(C)C"
  Study target: "human RAR-α"
  Unit info: "%"
  Transactivation % max (α): 23

Qu. Look up Transactivation % max (α) for this molecule: CCOC(=O)/C=C(C)/C=C/C=C(C)/C=C/c1c(C)cc(OC)c(C)c1C [E, etretinate, reference compound]
Ans. 14

Qu. Entry CC1=C(/C=C/C(C)=C\C=C\C(C)=C\C(=O)O)C(C)(C)CCC1 [C, 9-cis RA, reference compound] please
Ans. 105

Qu. Entry CCCCCOc1cc2c(cc1/C=C/c1ccc(C(=O)O)cc1)C(C)(C)CCC2(C)C please
Ans. 16
